target: catalytic domain (JH1) of human JAK2 (Homo sapiens, UniProt O60674); construct: catalytic domain (JH1, amino acids 826-1132) of human JAK2; FLAG (N); experiment: JAK2 LanthaScreen JH1 Binding Assay; details: 50 nM Fluorescent JAK2-JH1 Tracer, 2 hours at 25° C.
Sequence (O60674 826-1132): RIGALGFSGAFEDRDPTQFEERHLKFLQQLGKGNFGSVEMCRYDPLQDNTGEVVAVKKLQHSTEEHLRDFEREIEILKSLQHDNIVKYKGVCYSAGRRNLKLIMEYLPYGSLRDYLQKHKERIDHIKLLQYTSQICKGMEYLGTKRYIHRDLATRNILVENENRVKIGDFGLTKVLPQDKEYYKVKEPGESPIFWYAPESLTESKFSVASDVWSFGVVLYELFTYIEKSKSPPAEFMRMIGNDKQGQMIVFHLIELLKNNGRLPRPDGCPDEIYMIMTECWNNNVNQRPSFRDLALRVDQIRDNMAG
measure: IC50

Prompt line: Name the recorded IC50 of the molecule listed here: CN(C)S(=O)(=O)c1ccc(-c2[nH]c3nc(N)[nH]c(=O)c3c2-c2cccc3c2OCCN3)cc1 [Example 49]
Response line: > 2500 nM

Prompt line: Name the recorded IC50 of the molecule listed here: Cc1cccc(-c2c(-c3cccc(C(=O)N(C)C)c3)[nH]c3nc(N)[nH]c(=O)c23)c1 [Example 61]
Response line: > 2500 nM

Prompt line: Name the recorded IC50 of the molecule listed here: CN(C)S(=O)(=O)c1ccc(-c2[nH]c3nc(N)[nH]c(=O)c3c2-c2cccc3c2OC(F)(F)O3)cc1 [Example 12]
Response line: 1000 to 2500 nM

Prompt line: Name the recorded IC50 of the molecule listed here: CN(C)S(=O)(=O)c1ccc(-c2[nH]c3nc(N)[nH]c(=O)c3c2-c2cnn(Cc3ccncc3)c2)cc1 [Example 32]
Response line: > 2500 nM

Prompt line: Name the recorded IC50 of the molecule listed here: CN(C)S(=O)(=O)c1ccc(-c2[nH]c3nc(N)[nH]c(=O)c3c2-c2ccc(S(C)(=O)=O)cc2)cc1 [Example 13]
Response line: 1000 to 2500 nM

Prompt line: Name the recorded IC50 of the molecule listed here: CN(C)S(=O)(=O)c1ccc(-c2[nH]c3nc(N)[nH]c(=O)c3c2-c2ccccc2Cl)cc1 [Example 5]
Response line: > 2500 nM

Prompt line: Name the recorded IC50 of the molecule listed here: COc1ccc(-c2c(-c3ccc(S(=O)(=O)N(C)C)cc3)[nH]c3nc(N)[nH]c(=O)c23)c(OC)c1 [Example 42]
Response line: > 2500 nM
